- Test system: WAGA cells (VP-MCC)
- Procedure Details: qHTS cell viability (CellTiter-Glo, 72 h; primary and follow-up small molecule screen)
- Type: cell-based, human
- Assay Conditions: WAGA, 72h, Log (M) -8.19919
Measured Endpoint: Percent viability (%)
Return type: number; implicit unit %.

These solved cases illustrate the format of a correct answer.
Output measured Percent viability for this item: CCS(=O)(=O)c1cccc(-c2cc(C(=O)NC3CCN(C)CC3)c(C)c3[nH]c4ncc(C)cc4c23)c1 [TAK-901, reference compound]
95.5

Output measured Percent viability for this item: O=C(Nc1cccc(Cl)c1)Nc1ncc(CCNc2ncnc3ccsc23)s1 [SNS-314, reference compound]
38.2

Output measured Percent viability for this item: CCn1cc(-c2ccnc3[nH]c(-c4cccc(CN(C)C)c4)cc23)c(-c2ccc(NC(=O)N(C)C)cc2)n1 [GSK-1070916A, reference compound]
28.3

Turning now to a further molecule:
Output measured Percent viability for this item: Cc1cc(Nc2cc(N3CCN(C)CC3)nc(Sc3ccc(NC(=O)C4CC4)cc3)n2)[nH]n1 [Tozasertib, reference compound]
107.2

* * *

- System: MCC13 cells (VN-MCC)
- Procedure Details: qHTS cell viability (CellTiter-Glo, 72 h; primary and follow-up small molecule screen)
- Assay type: cell-based, human
- Assay Conditions: MCC13, 72h, Log (M) -8.19919
Measured Endpoint: Percent viability (%)
Return type: number; implicit unit %.

These solved cases illustrate the format of a correct answer.
Output measured Percent viability for this item: Cc1cc(Nc2cc(N3CCN(C)CC3)nc(Sc3ccc(NC(=O)C4CC4)cc3)n2)[nH]n1 [Tozasertib, reference compound]
106.1

Output measured Percent viability for this item: CCS(=O)(=O)c1cccc(-c2cc(C(=O)NC3CCN(C)CC3)c(C)c3[nH]c4ncc(C)cc4c23)c1 [TAK-901, reference compound]
118.4

More entries:
Output measured Percent viability for this item: CCn1cc(-c2ccnc3[nH]c(-c4cccc(CN(C)C)c4)cc23)c(-c2ccc(NC(=O)N(C)C)cc2)n1 [GSK-1070916A, reference compound]
87.1

Output measured Percent viability for this item: O=C(Nc1cccc(Cl)c1)Nc1ncc(CCNc2ncnc3ccsc23)s1 [SNS-314, reference compound]
94.5

* * *

- Tested on: WAGA cells (VP-MCC)
- Procedure Details: qHTS cell viability (CellTiter-Glo, 72 h; primary and follow-up small molecule screen)
- Assay type: cell-based, human
- Assay Conditions: WAGA, 72h, Log (M) -6.2907
Measured Endpoint: Percent viability (%)
Return type: number; implicit unit %.

These solved cases illustrate the format of a correct answer.
Output measured Percent viability for this item: O=C(Nc1cccc(Cl)c1)Nc1ncc(CCNc2ncnc3ccsc23)s1 [SNS-314, reference compound]
39.2

Output measured Percent viability for this item: Cc1cc(Nc2cc(N3CCN(C)CC3)nc(Sc3ccc(NC(=O)C4CC4)cc3)n2)[nH]n1 [Tozasertib, reference compound]
25.7

Output measured Percent viability for this item: CCn1cc(-c2ccnc3[nH]c(-c4cccc(CN(C)C)c4)cc23)c(-c2ccc(NC(=O)N(C)C)cc2)n1 [GSK-1070916A, reference compound]
31.4

Turning now to a further compound:
Output measured Percent viability for this item: CCS(=O)(=O)c1cccc(-c2cc(C(=O)NC3CCN(C)CC3)c(C)c3[nH]c4ncc(C)cc4c23)c1 [TAK-901, reference compound]
24.4

* * *

- Tested on: UISO cells (VN-MCC)
- Procedure Details: qHTS cell viability (CellTiter-Glo, 72 h; primary and follow-up small molecule screen)
- Format: cell-based, human
- Assay Conditions: UISO, 72h, Log (M) -9.15343
Entries and their Percent viability values follow.
Return type: number; implicit unit %.

These solved cases illustrate the format of a correct answer.
Output measured Percent viability for this item: CCn1cc(-c2ccnc3[nH]c(-c4cccc(CN(C)C)c4)cc23)c(-c2ccc(NC(=O)N(C)C)cc2)n1 [GSK-1070916A, reference compound]
106.7

Output measured Percent viability for this item: CCS(=O)(=O)c1cccc(-c2cc(C(=O)NC3CCN(C)CC3)c(C)c3[nH]c4ncc(C)cc4c23)c1 [TAK-901, reference compound]
102.4

Output measured Percent viability for this item: O=C(Nc1cccc(Cl)c1)Nc1ncc(CCNc2ncnc3ccsc23)s1 [SNS-314, reference compound]
108.7

Turning now to a further compound:
Output measured Percent viability for this item: Cc1cc(Nc2cc(N3CCN(C)CC3)nc(Sc3ccc(NC(=O)C4CC4)cc3)n2)[nH]n1 [Tozasertib, reference compound]
102.6

* * *

- Tested on: MCC26 cells (VN-MCC)
- Procedure Details: qHTS cell viability (CellTiter-Glo, 72 h; primary and follow-up small molecule screen)
- Format: cell-based, human
- Assay Conditions: MCC26, 72h, Log (M) -5.33646
Entries and their Percent viability values follow.
Return type: number; implicit unit %.

These solved cases illustrate the format of a correct answer.
Output measured Percent viability for this item: CCn1cc(-c2ccnc3[nH]c(-c4cccc(CN(C)C)c4)cc23)c(-c2ccc(NC(=O)N(C)C)cc2)n1 [GSK-1070916A, reference compound]
11.3

Output measured Percent viability for this item: O=C(Nc1cccc(Cl)c1)Nc1ncc(CCNc2ncnc3ccsc23)s1 [SNS-314, reference compound]
72.0

Output measured Percent viability for this item: CCS(=O)(=O)c1cccc(-c2cc(C(=O)NC3CCN(C)CC3)c(C)c3[nH]c4ncc(C)cc4c23)c1 [TAK-901, reference compound]
25.9

Turning now to a further compound:
Output measured Percent viability for this item: Cc1cc(Nc2cc(N3CCN(C)CC3)nc(Sc3ccc(NC(=O)C4CC4)cc3)n2)[nH]n1 [Tozasertib, reference compound]
26.6

* * *

- Test system: WAGA cells (VP-MCC)
- Procedure Details: qHTS cell viability (CellTiter-Glo, 72 h; primary and follow-up small molecule screen)
- Type: cell-based, human
- Assay Conditions: WAGA, 72h, Log (M) -6.76782
Measured Endpoint: Percent viability
In your response, put the unit directly after the numeric value.

These solved cases illustrate the format of a correct answer.
Output measured Percent viability for this item: CCn1cc(-c2ccnc3[nH]c(-c4cccc(CN(C)C)c4)cc23)c(-c2ccc(NC(=O)N(C)C)cc2)n1 [GSK-1070916A, reference compound]
40.3%

Output measured Percent viability for this item: O=C(Nc1cccc(Cl)c1)Nc1ncc(CCNc2ncnc3ccsc23)s1 [SNS-314, reference compound]
41.9%

Output measured Percent viability for this item: Cc1cc(Nc2cc(N3CCN(C)CC3)nc(Sc3ccc(NC(=O)C4CC4)cc3)n2)[nH]n1 [Tozasertib, reference compound]
41.2%

Turning now to a further molecule:
Output measured Percent viability for this item: CCS(=O)(=O)c1cccc(-c2cc(C(=O)NC3CCN(C)CC3)c(C)c3[nH]c4ncc(C)cc4c23)c1 [TAK-901, reference compound]
45.2%

* * *

Entries and their Area under the dose-response curve (AUC) UISO Replicate 3 values follow.
- Tested on: UISO cells (VN-MCC)
- Procedure Details: qHTS cell viability (CellTiter-Glo, 72 h; primary and follow-up small molecule screen)
- Format: cell-based, human

These solved cases illustrate the format of a correct answer.
Output measured Area under the dose-response curve (AUC) UISO Replicate 3 for this item: CN(C)C(=O)Nc1ccc(Cl)c(Cl)c1
396.8

Output measured Area under the dose-response curve (AUC) UISO Replicate 3 for this item: CC(C)(C)CC(C)(C)c1ccc(OCCOCC[N+](C)(C)Cc2ccccc2)cc1 [Benzethonium chloride]
362.8

Output measured Area under the dose-response curve (AUC) UISO Replicate 3 for this item: CCC(=O)NC[C@H](Cc1ccc(OCCc2nc(-c3ccccc3)oc2C)cc1)N/C(C)=C\C(=O)c1ccc(C(F)(F)F)cc1
403.1

Turning now to a further compound:
Output measured Area under the dose-response curve (AUC) UISO Replicate 3 for this item: CN(C)c1ccc(C(=C2C=CC(=[N+](C)C)C=C2)c2ccccc2)cc1.CN(C)c1ccc(C(=C2C=CC(=[N+](C)C)C=C2)c2ccccc2)cc1.O=C(O)C(=O)O.O=C([O-])C(=O)O.O=C([O-])C(=O)O [Malachite green oxalate]
271.1

* * *

Entries and their Percent viability values follow.
- System: MKL-1 cells (VP-MCC)
- Procedure Details: qHTS cell viability (CellTiter-Glo, 72 h; primary and follow-up small molecule screen)
- Format: cell-based, human
- Assay Conditions: MKL1, 72h, Log (M) -8.19919
Return type: number; implicit unit %.

These solved cases illustrate the format of a correct answer.
Output measured Percent viability for this item: CCn1cc(-c2ccnc3[nH]c(-c4cccc(CN(C)C)c4)cc23)c(-c2ccc(NC(=O)N(C)C)cc2)n1 [GSK-1070916A, reference compound]
32.4

Output measured Percent viability for this item: CCS(=O)(=O)c1cccc(-c2cc(C(=O)NC3CCN(C)CC3)c(C)c3[nH]c4ncc(C)cc4c23)c1 [TAK-901, reference compound]
61.6

More entries:
Output measured Percent viability for this item: O=C(Nc1cccc(Cl)c1)Nc1ncc(CCNc2ncnc3ccsc23)s1 [SNS-314, reference compound]
56.1

Output measured Percent viability for this item: Cc1cc(Nc2cc(N3CCN(C)CC3)nc(Sc3ccc(NC(=O)C4CC4)cc3)n2)[nH]n1 [Tozasertib, reference compound]
101.6
